# key: entry, value: ED50
Tested on: bicuculline-induced tonic convulsion
PROCEDURE_DETAILS: Anti-bicuculline effect (anti-tonic convulsion), oral
Assay type: in vivo
CONDITION_LABEL: Mus musculus, 5 min; bicuculline 0.6 mg/kg i.v. 60 min after oral test compound; protection of 50% against tonic convulsion within 5 min; male dd-mice; read-out: Anti-bicuculline-convulsive effect, ED50
State just the number; it will be interpreted in mg/kg.

-- ask Name the reported ED50 value associated with the compound CN1C(=O)CC2Cc3c(Cl)cccc3C21 (centres unmarked)
-- reply 68

-- ask ED50 for Fc1ccc2c(c1)CC1CC(=S)NC21 (centres unmarked) ?
-- reply 70

-- ask Quick check: ED50 of O=C1CC2Cc3c(Cl)cccc3C2N1 (centres unmarked) ?
-- reply 75

// moving on: another record for ED50
-- ask I have this compound here, O=C1CC2Cc3ccc(F)cc3C2N1 (centres unmarked) , and I need its recorded ED50.
-- reply 56
